TEST_SYSTEM: Sialic acid-binding Ig-like lectin 9 (Homo sapiens) (UniProt Q9Y336)
Sequence (Q9Y336 whole entry): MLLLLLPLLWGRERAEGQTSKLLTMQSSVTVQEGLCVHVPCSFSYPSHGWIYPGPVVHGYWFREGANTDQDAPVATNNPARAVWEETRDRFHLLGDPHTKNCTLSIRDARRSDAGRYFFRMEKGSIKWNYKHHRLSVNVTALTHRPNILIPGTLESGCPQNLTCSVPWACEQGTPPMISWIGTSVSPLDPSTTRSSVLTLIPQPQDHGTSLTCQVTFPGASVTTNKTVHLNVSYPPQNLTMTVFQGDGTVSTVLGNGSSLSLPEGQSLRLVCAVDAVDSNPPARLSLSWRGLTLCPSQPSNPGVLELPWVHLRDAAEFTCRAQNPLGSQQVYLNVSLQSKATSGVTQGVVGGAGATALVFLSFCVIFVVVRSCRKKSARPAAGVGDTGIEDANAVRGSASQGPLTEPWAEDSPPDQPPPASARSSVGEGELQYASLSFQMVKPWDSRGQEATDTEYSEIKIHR
METHOD_SUMMARY: Hs-Siglec9 ALPHAscreen SOP 20170721
Design: scale not given: direction of the effect not stated beside the values
COND: 10 µM
Listed next: entries and their corresponding Percent Effect.

In: Which Percent Effect reading was recorded for the compound c1cnc(N2CCC3(COCc4cnc(-c5cccnc5)nc43)C2)nc1 (stereo not given) ?
Out: -3.8%

In: Which Percent Effect reading was recorded for the compound CCc1nccc(CN2CCCC(c3nn(C)c(=O)n3CC)C2)n1 (stereo not given) ?
Out: 37.3%

---

TEST_SYSTEM: Protein translocase subunit SecA (Escherichia coli (strain K12)) (UniProt P10408)
Sequence (P10408 whole entry): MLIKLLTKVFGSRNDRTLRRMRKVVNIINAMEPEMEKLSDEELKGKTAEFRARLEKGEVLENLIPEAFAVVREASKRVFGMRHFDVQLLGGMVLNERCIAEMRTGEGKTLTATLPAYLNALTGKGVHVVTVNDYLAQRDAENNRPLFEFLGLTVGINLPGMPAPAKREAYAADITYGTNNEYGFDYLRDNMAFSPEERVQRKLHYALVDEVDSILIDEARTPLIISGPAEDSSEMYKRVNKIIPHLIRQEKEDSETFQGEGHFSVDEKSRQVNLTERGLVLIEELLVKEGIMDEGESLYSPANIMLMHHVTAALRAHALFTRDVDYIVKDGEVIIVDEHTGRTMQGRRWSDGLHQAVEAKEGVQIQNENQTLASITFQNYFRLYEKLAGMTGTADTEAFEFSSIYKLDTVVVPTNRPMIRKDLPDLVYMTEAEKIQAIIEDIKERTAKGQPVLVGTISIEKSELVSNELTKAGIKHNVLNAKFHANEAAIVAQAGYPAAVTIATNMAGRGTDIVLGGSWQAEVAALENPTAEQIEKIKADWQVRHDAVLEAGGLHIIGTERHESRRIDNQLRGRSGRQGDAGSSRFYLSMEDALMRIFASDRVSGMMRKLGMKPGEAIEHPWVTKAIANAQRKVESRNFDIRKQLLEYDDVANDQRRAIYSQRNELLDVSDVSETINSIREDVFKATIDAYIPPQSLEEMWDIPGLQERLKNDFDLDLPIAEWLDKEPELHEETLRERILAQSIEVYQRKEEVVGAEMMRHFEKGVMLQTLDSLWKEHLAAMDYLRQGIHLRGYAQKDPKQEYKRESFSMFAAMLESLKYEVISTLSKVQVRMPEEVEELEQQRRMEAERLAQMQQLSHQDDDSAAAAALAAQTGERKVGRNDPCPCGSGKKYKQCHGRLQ
METHOD_SUMMARY: Assay to Identify E. coli SecA ATPase Inhibitors
Format: functional
Set-up: scale not given: direction of the effect not stated beside the values
COND: 30 µM
Results with a measured potency or affinity are listed apart.
Listed next: entries and their corresponding Percent Effect.
Form entry: value (%) — number only.

Consider the worked cases shown below.
| COMPOUND | Percent Effect / % |
| --- | --- |
| Cc1ccc(CNCc2nnc3n2CCCC3C(F)(F)F)s1 (centres undefined) | -1.65 |
| Cc1noc([C@H]2C[C@H]3OCC[C@H]3N(Cc3ccc4c(c3)OCO4)C2)n1 | -1.12 |

In: Which Percent Effect reading was recorded for the compound Cc1cccc2[nH]c(C3CCN(C(=O)c4ccnn4C)CC3)nc12 ?
Out: -4.98

In: Which Percent Effect reading was recorded for the compound COc1cccc(CN(C)C(=O)CN2CC(n3nc(C)cc3C)C2)c1 ?
Out: -0.578

In: Which Percent Effect reading was recorded for the compound CN(Cc1ccc(F)cc1)CC1(O)CCCN(CC(C)(C)C)C1=O (centres undefined) ?
Out: -5.95

In: Which Percent Effect reading was recorded for the compound COc1c(C2CCCN2C(=O)c2csc(C(C)C)n2)c(C)nn1C (centres undefined) ?
Out: -5.84

In: Which Percent Effect reading was recorded for the compound O=c1n(CCSCc2ccccc2F)nc2ccccn12 ?
Out: -4.09

In: Which Percent Effect reading was recorded for the compound O=C(NCCc1ccsc1)Nc1cccnc1N1CCCC1 ?
Out: -3.39

In: Which Percent Effect reading was recorded for the compound COc1cccc(COCC(=O)N2CCCC(n3ccnc3)C2)c1 (centres undefined) ?
Out: -4.67
